Conditions: human gut metagenome, 24 h, 2 µM; note: call rule not given here
METRIC NAME: Bacterial Biotransformation

Worked examples, 5 molecules total:
{"columns": ["MOLECULE", "METRIC NAME", "TEST VALUE"],
 "data": [
  ["CC(C(=O)O)c1ccc2c(c1)Cc1cccnc1O2 (centres undefined) [PRANOPROFEN]", "Bacterial Biotransformation", "Compound metabolized"],
  ["COC1=CC(=O)C[C@@H](C)[C@]12Oc1c(Cl)c(OC)cc(OC)c1C2=O [GRISEOFULVIN]", "Bacterial Biotransformation", "Compound metabolized"],
  ["COc1c2occc2cc2ccc(=O)oc12 [METHOXSALEN]", "Bacterial Biotransformation", "Compound metabolized"],
  ["CC(=O)O[C@]1(C(C)=O)CC[C@H]2[C@@H]3C=C(Cl)C4=CC(=O)[C@@H]5C[C@@H]5[C@]4(C)[C@H]3CC[C@@]21C [CYPROTERONE ACETATE]", "Bacterial Biotransformation", "Compound metabolized"],
  ["CN(C)CCC=C1c2ccccc2C=Cc2ccccc21 [CYCLOBENZAPRINE]", "Bacterial Biotransformation", "Compound metabolized"]
]}

Quick batch: Bacterial Biotransformation for everything below.
1. Br.CN(C)CCCC1(c2ccc(F)cc2)OCc2cc(C#N)ccc21 (centres undefined) [CITALOPRAM HYDROBROMIDE]
2. CN1C[C@H](C(=O)N[C@]2(C)O[C@@]3(O)[C@@H]4CCCN4C(=O)[C@H](Cc4ccccc4)N3C2=O)C=C2c3cccc4[nH]cc(c34)C[C@H]21.CN1C[C@H](C(=O)N[C@]2(C)O[C@@]3(O)[C@@H]4CCCN4C(=O)[C@H](Cc4ccccc4)N3C2=O)C=C2c3cccc4[nH]cc(c34)C[C@H]21.O=C(O)C(O)C(O)C(=O)O [ERGOTAMINE TARTRATE]
3. CN1CCc2cccc3c2[C@H]1Cc1ccc(O)c(O)c1-3 [APOMORPHINE]
4. CS(=O)(=O)O.O.O.O.O=C1Cc2cc(CCN3CCN(c4nsc5ccccc45)CC3)c(Cl)cc2N1 [ZIPRASIDONE MESYLATE]
5. CNC(=C[N+](=O)[O-])NCCSCc1csc(CN(C)C)n1 [NIZATIDINE]
6. COc1ccccc1N1CCN(CC(O)COc2cccc3ccccc23)CC1 (centres undefined) [NAFTOPIDIL]

Out:
["Compound NOT metabolized", "Compound NOT metabolized", "Compound NOT metabolized", "Compound metabolized", "Compound NOT metabolized", "Compound NOT metabolized"]

Provide Bacterial Biotransformation for all items below, preserving their order.
1. CN1CCN(C(=O)O[C@H]2c3nccnc3C(=O)N2c2ccc(Cl)cn2)CC1 [ESZOPICLONE]
2. CN1C(=O)CC(C)(c2ccccc2)C1=O (centres undefined) [METHSUXIMIDE]

Out:
Compound NOT metabolized
Compound NOT metabolized
